test system: human hepatocytes; test: Metabolic stability in human hepatocytes; conditions: 1 μM test compound, 50% human serum, percentage of liver blood flow
Consider the following molecules and their measured Hepatic clearance - QH[%] in human hepatocytes readings.
RESULT_TYPE: Hepatic clearance - QH[%] in human hepatocytes (%)

- MOLECULE: "Cc1c([C@@H](C)NC(=O)c2cc(N3CCC4(CCCN4C)CC3)c3nnc(C)n3c2)cccc1C(F)(F)F"
  COMPARISON_SIGN: "<"
  RECORDED_NUMBER: 4
- MOLECULE: "C[C@@H](NC(=O)c1cc(N2CCC(NC3CCCC3(C)O)CC2)c2ncnn2c1)c1cccc(C(F)(F)F)c1F (single isomer, unassigned) [Example trans-E53b]"
  COMPARISON_SIGN: "="
  RECORDED_NUMBER: 28
- MOLECULE: "C[C@@H](NC(=O)c1cc(N2CCC3(CCCN3C)CC2)c2ncnn2c1)c1cccc(C(C)(F)F)c1F"
  COMPARISON_SIGN: "="
  RECORDED_NUMBER: 8
- MOLECULE: "C[C@@H](NC(=O)c1cc(N2CCC3(CCCN3C)CC2)n2ncnc2c1)c1cccc(C(F)(F)F)c1F"
  COMPARISON_SIGN: "="
  RECORDED_NUMBER: 15

---

test system: human hepatocytes; assay: Metabolic stability in human hepatocytes; settings: 1 μM test compound, 50% human serum, percentage of liver blood flow
RESULT_TYPE: Hepatic clearance - QH[%] in human hepatocytes (%)

- MOLECULE: "C[C@@H](NC(=O)c1cc(N2CCC3(CCCCN3C)CC2)c2ncnn2c1)c1cccc(C(F)(F)F)c1F [Example E46]"
  RECORDED_NUMBER: 9
- MOLECULE: "C[C@@H](NC(=O)c1cc(N2CCC(N3CCC(O)C(C)(O)C3)CC2)c2ncnn2c1)c1cccc(C(F)(F)F)c1F (stereo partly drawn) [Example cis-E29]"
  RECORDED_NUMBER: 24
- MOLECULE: "C[C@@H](NC(=O)c1cc(N2CCC(NC3COCC3O)CC2)c2ncnn2c1)c1cccc(C(F)F)c1F (single isomer, unassigned) [Example cis-E16b]"
  RECORDED_NUMBER: 24

---

Consider the following molecules and their measured Hepatic clearance - QH[%] in human hepatocytes readings.
test system: human hepatocytes; test: Metabolic stability in human hepatocytes; details: 1 μM test compound, 50% human serum, percentage of liver blood flow
RESULT_TYPE: Hepatic clearance - QH[%] in human hepatocytes (%)

- MOLECULE: "C[C@@H](NC(=O)c1cc([C@]2(O)CC[C@@H](N3CC[C@@H](F)C3)CC2)c2ncnn2c1)c1cccc(C(F)F)c1F [Example E65]"
  TEST_TARGET: "human hepatocytes"
  UNITS_TEXT: "%"
  RECORDED_NUMBER: 38
- MOLECULE: "C[C@@H](NC(=O)c1cc(N2CCC(N3CCCCC3)CC2)c2ncnn2c1)c1cccc(C(F)(F)F)c1F [Example E49]"
  TEST_TARGET: "human hepatocytes"
  UNITS_TEXT: "%"
  RECORDED_NUMBER: 23
- MOLECULE: "C[C@@H](NC(=O)c1cc(N2CCC(N3CC[C@](C)(O)C3)CC2)c2ncnn2c1)c1cccc(C(F)F)c1F [Example E4]"
  TEST_TARGET: "human hepatocytes"
  UNITS_TEXT: "%"
  RECORDED_NUMBER: 20
- MOLECULE: "C[C@@H](NC(=O)c1cc(N2CCC3CCNC3C2)c2ncnn2c1)c1cccc(C(F)(F)F)c1F (single isomer, unassigned) [Example cis-E52b]"
  TEST_TARGET: "human hepatocytes"
  UNITS_TEXT: "%"
  RECORDED_NUMBER: 14
- MOLECULE: "C[C@@H](NC(=O)c1cc(N2CCC(N3CCCC(C)(O)C3)CC2)c2ncnn2c1)c1cccc(C(F)(F)F)c1F (single isomer, unassigned) [Example E47a]"
  TEST_TARGET: "human hepatocytes"
  UNITS_TEXT: "%"
  RECORDED_NUMBER: 30
- MOLECULE: "C[C@@H](NC(=O)c1cc(N2CCC(NC3COCC3O)CC2)c2ncnn2c1)c1cccc(C(F)(F)F)c1F (single isomer, unassigned) [Example trans-E42b]"
  TEST_TARGET: "human hepatocytes"
  UNITS_TEXT: "%"
  RECORDED_NUMBER: 16
